The following compounds are listed with their measured Cell Viability, % of Control, MCF-7 values.
Test system: breast MCF-7 cancer cells
experimentSummary: Cytotoxic activity (MTT assay)
Type: cell-based, human
conditions: 100 µM, 24 h, MTT
observedProperty: Cell Viability, % of Control, MCF-7

compound="CC1CCC2C(C1)C(Cl)C(O)C(C)(O)C2C(=O)CCO (stereo not drawn) [Compound 10, zosteropenilline S]" observedproperty="Cell Viability, % of Control, MCF-7" valuereported="84.85 ± 4.90 % of Control"
compound="C[C@@]1(O)C=C[C@H]2C[C@@H](CO)CC[C@@H]2[C@H]1C(=O)CCO [Compound 12, zosteropenilline J]" observedproperty="Cell Viability, % of Control, MCF-7" valuereported="82.77 ± 1.36 % of Control"
compound="C[C@H]1C=C[C@H]2[C@H](O)[C@@H](C)CC[C@@H]2[C@H]1C(=O)CCO [Compound 8, 13-dehydroxypallidopenilline A]" observedproperty="Cell Viability, % of Control, MCF-7" valuereported="81.21 ± 5.56 % of Control"

* * *

Tested on: human prostate PC-3 cancer cells
experimentSummary: Cytotoxic activity (MTT assay)
Assay type: cell-based
conditions: Homo sapiens, PC-3, 24 h; read-out: IC50, PC-3 cell viability
observedProperty: IC50 (µM)

compoundstructure=CC(=O)OCCC(=O)[C@@H]1[C@H]2CC[C@H](C)[C@@H](O)[C@@H]2C=C[C@@]1(C)O observedproperty=IC50 valuereported=94.2
